Give Kd for every item shown.
- Measured target: rClfA229-545 (Staphylococcus aureus, UniProt Q53653)
- Construct: 6xHis; made in house; host or cells: E. coli
- Sequence (Q53653 229-545): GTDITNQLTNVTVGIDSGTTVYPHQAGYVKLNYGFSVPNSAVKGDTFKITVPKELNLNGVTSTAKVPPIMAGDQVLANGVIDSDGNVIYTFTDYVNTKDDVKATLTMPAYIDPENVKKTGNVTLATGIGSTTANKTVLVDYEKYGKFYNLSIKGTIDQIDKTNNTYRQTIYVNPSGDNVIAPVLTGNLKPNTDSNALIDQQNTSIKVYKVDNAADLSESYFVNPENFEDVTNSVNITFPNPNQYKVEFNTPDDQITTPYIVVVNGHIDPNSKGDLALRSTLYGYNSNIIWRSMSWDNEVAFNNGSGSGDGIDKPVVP
- Test summary: Isothermal titration calorimetry of Fg γ-peptide binding to rClfA229-545
Ends that are not written are not given here.
The response must be a number in µM with no trailing unit.

Exercise: Recorded Kd for GQQHHLGGAKQAGDV [human 15-mer peptide] with rClfA229-545 (Staphylococcus aureus, UniProt Q53653), please?
Key: 40

Exercise: Recorded Kd for GEGQQHHLGGAKQAGDV [human 17-mer peptide] with rClfA229-545 (Staphylococcus aureus, UniProt Q53653), please?
Key: 23

meta.source: patent US20110171285A1
